The reported measurements were obtained from patent US12612412B2.

# System: HMPV clinical isolate TN/1501/A1
# TEST: HMPV antiviral assay Method-B (clinical isolate TN/1501/A1 in LLC-MK2 cells, ATP-Lite readout)
# Assay type: cell-based, Human metapneumovirus (HMPV)
# REPORTED_CONDITIONS: human metapneumovirus, LLC-MK2, 144 h, hMPV WT1501 (clinical isolate TN/1501/A1), 6 days
# Description: In vitro HMPV antiviral activity was evaluated using the clinical isolate TN/1501/A1 and LLC-MK2 cells (ATCC #CCL-7), an immortalized kidney epithelial cell line from Macaca mulatta. […] The test compounds were assessed in duplicate at a top concentration of 10 μM followed by 3-fold serial dilutions to give a total of 10 concentration points. […] Cells were counted and seeded at a density of 5,000 cells/well, 12.5 μL/well. […]
Listing: EC50 of selected compounds

Enquiry: Requested field: EC50. Item: COc1cc(C(=O)NC[C@](O)(c2cc3c(c(-c4ccc5c(c4)OC(F)(F)O5)n2)OC[C@]3(C)C(N)=O)C(F)(F)F)cc2cn(C(F)F)nc12 [Example 591]
Return: < 500 nM

Enquiry: Field request: EC50 | item: Cc1cnc2c(OC(F)F)cc(C(=O)NC[C@](O)(c3cc4c(c(-c5ccc(F)cc5Cl)n3)OC[C@]4(C)C(N)=O)C3(F)CC3)cc2c1 [Example 733]
Return: < 500 nM

Enquiry: What value of EC50 has been recorded for this entry: COc1cc(C(=O)NCC(O)(c2cc3c(c(-c4cnc(C(F)(F)F)nc4)n2)OC[C@]3(C)C(N)=O)C(F)(F)F)cc2cn(C3CC3)nc12 (stereo partly drawn) [Example 899]
Return: > 500 nM

Enquiry: Fill in: EC50 of COc1cc(C(=O)NC[C@](O)(c2cc3c(c(-c4ccc5c(c4)OC(F)(F)O5)n2)OC[C@]3(C)C(N)=O)C2(F)CC2)cc2sc(C)nc12 [Example 727] is ___
Return: < 500 nM

Enquiry: EC50 lookup needed for COc1cc(C(=O)NC[C@](O)(c2cc3c(c(-c4c(F)ccc(F)c4F)n2)OC[C@]3(C)C(N)=O)C(F)(F)F)cc2cn(C3CC3)nc12 [Example 964] , thanks.
Return: < 500 nM

Enquiry: I am curious: what EC50 value has been reported for COc1cc(C(=O)NC[C@](O)(c2cc3c(c(-c4c(F)cccc4F)n2)OC[C@]3(C)C(N)=O)C(F)(F)F)cc2cn(C3CC3)nc12 [Example 1233] ?
Return: > 500 nM

Enquiry: # input compound: COc1cc(C(=O)NC[C@](O)(c2cc3c(c(-c4ccc(F)c(Br)c4F)n2)OC[C@]3(C)C(N)=O)C2CC2)cc2cn(C(F)F)nc12 [Example 801] ; wanted: its EC50
Return: < 500 nM

---

# System: HMPV clinical isolate TN/1501/A1
# TEST: HMPV antiviral assay Method-B (clinical isolate TN/1501/A1 in LLC-MK2 cells, ATP-Lite readout)
# Type: cell-based, Human metapneumovirus (HMPV)
# REPORTED_CONDITIONS: human metapneumovirus, LLC-MK2, 144 h, hMPV WT1501 (clinical isolate TN/1501/A1), 6 days
pEC50: −log10 of the molar value.
MEASUREMENT_LABEL: pEC50

Sample records with pEC50:
[[record]]
compound = "C[C@@H](O)COc1ccc(C(=O)NC[C@](O)(c2cc3c(c(-c4ccc5c(c4)OC(F)(F)O5)n2)OC[C@]3(C)C(N)=O)C(F)(F)F)cc1OC1CC1 [Example 818]"
result = "> 6.30"

[[record]]
compound = "COc1cc(C(=O)NC[C@](O)(c2cc3c(c(-c4ccc5c(c4)OC(F)(F)O5)n2)OC[C@@]3(C(N)=O)C(F)F)C2CC2)cc2cc(Cl)c(C)nc12 [Example 1015]"
result = "> 6.30"

[[record]]
compound = "COc1cc(C(=O)NC[C@](O)(c2cc3c(c(-c4ccc(F)c(Cl)c4F)n2)OC[C@]3(C)C(N)=O)C2CC2)cc2cn(C(F)F)nc12 [Example 556]"
result = "> 6.30"

[[record]]
compound = "C[C@]1(C(N)=O)COc2c1cc([C@@](O)(CNC(=O)c1cc(OC3CC3)c3nn(C(F)F)cc3c1)C(F)(F)F)nc2-c1ccc(F)c(Cl)c1F [Example 567]"
result = "> 6.30"

[[record]]
compound = "C[C@@]1(C(N)=O)COc2c(-c3ccc4c(c3)OC(F)(F)O4)nc([C@@](O)(CNC(=O)c3cc(Cl)c4nn(C5CC5)cc4c3)C3CC3)c(F)c21 [Example 864]"
result = "< 6.30"

[[record]]
compound = "C[C@]1(C(N)=O)COc2c1cc([C@@](O)(CNC(=O)c1cc(OCC3CC3)c3nn(C4(F)CC4)cc3c1)C(F)(F)F)nc2-c1ccc(F)cc1 [Example 877]"
result = "> 6.30"

[[record]]
compound = "COc1cc(C(=O)NC[C@](O)(c2cc3c(c(-c4ccc(F)c(Cl)c4)n2)OC[C@]3(C)C(N)=O)C2CC2)cc2cn(C3CC3)nc12 [Example 575]"
result = "> 6.30"

[[record]]
compound = "C[C@]1(C(N)=O)COc2c1cc([C@@](O)(CNC(=O)c1cc(OC3CC3)c3ncc(C#N)cc3c1)C(F)(F)F)nc2-c1ccc(F)cc1 [Example 1133]"
result = "< 6.30"

[[record]]
compound = "COc1cc(C(=O)NC[C@](O)(c2cc3c(c(-c4ccc(F)c(F)c4)n2)OC[C@]3(C)C(N)=O)C2CC2)cc2cn(C3CC3)nc12 [Example 534]"
result = "> 6.30"

[[record]]
compound = "COc1ccc(C(=O)NC[C@](O)(c2cc3c(c(-c4ccc(F)cc4)n2)OC[C@]3(C)C(N)=O)C(F)(F)F)n2cc(C3CC3)nc12 [Example 695]"
result = "< 6.30"


Enquiry: Request the reported pEC50 associated with COc1cc(C(=O)NC[C@](O)(c2cc3c(c(-c4cc(Cl)c(F)cc4F)n2)OC[C@]3(C)C(N)=O)C(F)(F)F)cc2cn(C(F)F)nc12 [Example 614]
Return: < 6.30

Enquiry: Given the entry C[C@]1(C(N)=O)COc2c1cc([C@@](O)(CNC(=O)c1ccc(F)c(NC(=O)NC3CC3)c1)C(F)(F)F)nc2-c1ccc(F)cc1 [Example 623] , report its measured pEC50.
Return: < 6.30

Enquiry: # pEC50 lookup, item COc1cc(C(=O)NC[C@](O)(c2cc3c(c(-c4c(F)ccc(Cl)c4F)n2)OC[C@]3(C)C(N)=O)C2CC2)cc2cc(Cl)c(C)nc12 [Example 1168]
Return: > 6.30

Enquiry: pEC50 lookup needed for COc1cc(C(=O)NC[C@](O)(c2cc3c(c(-c4ccc(F)cc4)n2)OC[C@]3(C)C(N)=O)C2CC2)cc2cc(Br)c(C)nc12 [Example 771] , thanks.
Return: > 6.30
